This listing pairs binders with measured kon.
- targetOfAssay: T1, human TIGIT (Sinobiological Co., Ltd., Cat. 10917-H08-H) (human, UniProt Q495A1 22-141)
- T1 construct: also called huTIGIT; TIGIT-His
- T1 sequence (looked up): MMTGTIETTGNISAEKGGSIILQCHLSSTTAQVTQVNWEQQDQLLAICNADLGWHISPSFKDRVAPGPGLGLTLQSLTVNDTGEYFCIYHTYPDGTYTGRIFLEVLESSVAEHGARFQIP
- procedureText: SPR (Biacore T200), antibody captured via Protein A, huTIGIT in mobile phase, 1:1 Langmuir fit
valueKind: kon

# binder, resultValue
measured = [
    ("h1707-02 (antibody, human IgG4 S228P, kappa, V domains shown, also called humanized TIGIT antibody h1707-02) VH: EVQLVESGGGLVQPGGSLRLSCAASGFTFSDYHMYWVRQAPGKGLEWVAYISKGGISTYYPDTVKGRFTISRDNAKNSLYLQMSRLRAEDTAVYYCARQSSYDFAMDYWGRGTLVTVSS VL: DIQMTQSPSFLSASVGDRVTITCKASQDVGTSVAWYQQKPGKAPKLLIYWASARHTGVPSRFSGSGSGTDFTLTISSLQPEDFATYYCQQYSSYPLTFGQGTKLEIKR", "1.74e+06 M⁻¹ s⁻¹"),
    ("22G2-H3Q (antibody, human IgG4 S228P, kappa, V domains shown) VH: QVQLQESGPGLVKPSETLSLTCTVSGGSVSSGIYYWSWIRQPPGKGLEWIGYIYYSGSTNYNPSLKSRVTISVDTSKNQFSLKLSSVTAADTAVYYCARDYYVSGNYYNVDYYFFGVDVWGQGTTVTVSS VL: EIVLTQSPATLSLSPGERATLSCRASQSVSSYLAWYQQKPGQAPRLLIYDASNRATGIPARFSGSGSGTDFTLTISSLEPEDFAVYYCQQRSNWPPLFTFGPGTKVDIKR", "535000 M⁻¹ s⁻¹"),
    ("h1708-04 (antibody, human IgG4 S228P, kappa, V domains shown, also called humanized TIGIT antibody h1708-04) VH: EVQLVQSGAEVKKPGASVKVSCKASGYTFTNYWMHWVRQAPGQGLEWMGRIDPDSTGSKYNEKFKTRVTMTRDTSTSTVYMELSSLRSEDTAVYYCAREGAYGYYFDYWGQGTLVTVSS VL: DIQMTQSPSSLSASVGDRVTITCRASENIYSYLAWYQQKPGKSPKLLIYNARTLAEGVPSRFSGSGSGTDFTLTISSLQPEDFATYYCQYHSGSPLPFGGGTKVEIKR", "1.75e+06 M⁻¹ s⁻¹"),
    ("h1710-01 (antibody, human IgG4 S228P, kappa, V domains shown, also called humanized TIGIT antibody h1710-01) VH: EVQLVQSGAEVKKPGASVKVSCKASGYTFTNYYMHWVRQAPGQGLEWMGRIDPTSGATKYNDNFKGRVTMTRDTSTSTVYMELSSLRSEDTAVYYCAREGGFGYYFDYWGQGTTVTVSS VL: DIQMTQSPSSLSASVGDRVTITCRTSENIFTYLAWYQQKPGKAPKLLIYNAKTFAEGVPSRFSGSGSGTDFTLTISSLQPEDFATYYCQHHYGIPLPFGQGTKLEIKR", "1.63e+06 M⁻¹ s⁻¹"),
    ("h1709-10 (antibody, human IgG4 S228P, kappa, V domains shown, also called humanized TIGIT antibody h1709-10) VH: EVQLVQSGAEVKKPGASVKVSCKASGYTFTDYYMHWVRQAPGQGLEWMGLVYPYNDNTGYNRKFKGRVTMTVDTSTSTVYMELNSLRSEDTAVYYCARGGPSNWNYFDYWGQGTLVTVSS VL: DIQMTQSPSSLSASVGDRVTITCKASQNVVTAVAWYQQKPGKSPKLLIYSASNRYTGVPDRFSGSGSGTDFTLTISSLQPEDFATYFCQQYTLYPLTFGGGTKVEIKR", "2.49e+06 M⁻¹ s⁻¹"),
]
